test system: Aspergillus fumigatus; experiment: Synergistic antifungal activity against Aspergillus fumigatus assessed as FIC index after 18 hrs in presence of fluconazole by checkerboard assay; format: functional
Listed below: fractional inhibitory concentration index (FICI) values for each entry.
Response field accepts a number only; no unit should be typed.

Below, 3 molecules whose answers are already recorded.
>>> print(df.to_string())
                                   molecule  test_result
0  OC(Cn1cncn1)(Cn1c2ccccc2c2ccc(Br)cc21)c1ccc(F)cc1F (centres undefined)         0.32
1  OC(Cn1cncn1)(Cn1c2ccccc2c2cc(Br)ccc21)c1ccc(F)cc1F (centres undefined)         0.32
2  OC(Cn1cncn1)(Cn1c2ccc(Br)cc2c2cc(Br)ccc21)c1ccc(F)cc1F (centres undefined)         0.56

Now take the following molecule into account.
Request: Which value of fractional inhibitory concentration index (FICI) has been reported for OC(Cn1cncn1)(Cn1c2ccccc2c2ccccc21)c1ccc(F)cc1F (centres undefined) in the records?
Response: 0.37

* * *

test system: Klebsiella pneumoniae; assay: Antibacterial activity against Klebsiella pneumoniae after 24 hrs by micro broth dilution method; assay type: functional
Quantity: MIC (mg/L)
A number alone suffices; assume mg/L.

Recorded results for 6 compounds are shown here.
                                   compound     u  test_result
0  OC(Cn1cncn1)(Cn1c2ccccc2c2ccc(Br)cc21)c1ccc(F)cc1F (configuration not stated)  mg/L          128
1  OC(Cn1cncn1)(Cn1c2ccc(Br)cc2c2cc(Br)ccc21)c1ccc(Cl)c(Cl)c1 (configuration not stated)  mg/L          128
2  OC(Cn1cncn1)(Cn1c2ccc(Br)cc2c2cc(Br)ccc21)c1ccc(F)cc1F (configuration not stated)  mg/L          128
3  OC(Cn1cncn1)(Cn1c2ccc(Br)cc2c2cc(Br)ccc21)c1ccc(F)cc1 (configuration not stated)  mg/L          256
4  Cc1ccc(C(O)(Cn2cncn2)Cn2c3ccc(Br)cc3c3cc(Br)ccc32)cc1 (configuration not stated)  mg/L          256
5  OC(Cn1cncn1)(Cn1c2ccccc2c2ccccc21)c1ccc(F)cc1F (configuration not stated)  mg/L           64

Request: Which MIC is reported for this compound? OC(Cn1cncn1)(Cn1c2ccccc2c2cc(I)ccc21)c1ccc(F)cc1F (configuration not stated)
Response: 256

* * *

Known MIC of a selection of molecules
system: Aspergillus fumigatus; assay: Antifungal activity against Aspergillus fumigatus after 24 hrs by two-fold broth microdilution assay; format: functional
Write the figure, then the unit, nothing else.

These solved cases illustrate the format of a correct answer.
>>> print(df.to_string())
                                   molecule  test_result
0  OC(Cn1cncn1)(Cn1c2ccc(Br)cc2c2cc(Br)ccc21)c1ccc(F)cc1F (configuration not stated)     32 µg/mL
1  CC(C)(C)c1ccc2c(c1)c1cc(C(C)(C)C)ccc1n2CC(O)(Cn1cncn1)c1ccc(F)cc1F (configuration not stated)    256 µg/mL
2  OC(Cn1cncn1)(Cn1c2ccccc2c2ccccc21)c1ccc(F)cc1F (configuration not stated)    128 µg/mL

Request: I would be grateful if you could share the reported MIC for OC(Cn1cncn1)(Cn1c2ccc(Br)cc2c2cc(Br)ccc21)c1ccc(Cl)c(Cl)c1 (configuration not stated) .
Response: 32 µg/mL

Request: Which MIC is reported for this molecule? OC(Cn1cncn1)(Cn1c2ccccc2c2cc(Br)ccc21)c1ccc(F)cc1F (configuration not stated)
Response: 64 µg/mL

Request: Recorded MIC of OC(Cn1cncn1)(Cn1c2ccccc2c2cc(I)ccc21)c1ccc(F)cc1F (configuration not stated) , please.
Response: 64 µg/mL

* * *

system: Pseudomonas aeruginosa; assay: Antibacterial activity against Pseudomonas aeruginosa after 24 hrs by micro broth dilution method; format: functional
Quantity: MIC (µg/mL)
Supply the numeric figure in µg/mL, leaving out any unit text.

In [3]: df
Out[3]:
                                   molecule      u  test_result
0  OC(Cn1cncn1)(Cn1c2ccccc2c2cc(I)ccc21)c1ccc(F)cc1F (configuration not stated)  µg/mL          128
1  OC(Cn1cncn1)(Cn1c2ccc(Br)cc2c2cc(Br)ccc21)c1ccc(F)cc1F (configuration not stated)  µg/mL           64

Request: What MIC value was documented for this molecule, CC(C)(C)c1ccc2c(c1)c1cc(C(C)(C)C)ccc1n2CC(O)(Cn1cncn1)c1ccc(F)cc1F (configuration not stated) ?
Response: 128

Request: // query MIC value for entry OC(Cn1cncn1)(Cn1c2ccccc2c2ccccc21)c1ccc(F)cc1F (configuration not stated)
Response: 128

Request: Any idea what its MIC is? The molecule is OC(Cn1cncn1)(Cn1c2ccccc2c2ccc(Br)cc21)c1ccc(F)cc1F (configuration not stated)
Response: 64

Request: Dear colleague, I am looking for the recorded MIC of the following molecule: Cc1ccc(C(O)(Cn2cncn2)Cn2c3ccc(Br)cc3c3cc(Br)ccc32)cc1 (configuration not stated)
Response: 256

Request: Look at this molecule and give its reported MIC. OC(Cn1cncn1)(Cn1c2ccc(Br)cc2c2cc(Br)ccc21)c1ccc(F)cc1 (configuration not stated)
Response: 128

Request: Query: MIC; subject: "CCn1cc(C(=O)O)c(=O)c2cc(F)c(N3CCNCC3)cc21"
Response: 2

Request: Endpoint output: MIC of OC(Cn1cncn1)(Cn1c2ccc(Br)cc2c2cc(Br)ccc21)c1ccc(Cl)c(Cl)c1 (configuration not stated) . Value?
Response: 64

Request: // returns reported MIC for input OC(Cn1cncn1)(Cn1c2ccccc2c2cc(Br)ccc21)c1ccc(F)cc1F (configuration not stated)
Response: 64

Request: What value of measured MIC is listed for OC(Cn1cncn1)(Cn1c2ccc(Br)cc2c2cc(Br)ccc21)c1ccc(Cl)cc1 (configuration not stated) ?
Response: 256

Request: Returns the measured MIC for the input molecule. Input: OC(Cn1cncn1)(Cn1ccc2ccccc21)c1ccc(F)cc1F (configuration not stated)
Response: 64

* * *

test system: Candida tropicalis; assay: Synergistic antifungal activity against Candida tropicalis assessed as FIC index after 18 hrs in presence of fluconazole by checkerboard assay; assay type: functional
Known fractional inhibitory concentration index (FICI) of a selection of compounds
Reply with the value as a number alone.

Illustrative cases are given below, each with its answer.
>>> print(df.to_string())
                                   compound        study_target  test_result
0  OC(Cn1cncn1)(Cn1c2ccccc2c2ccc(Br)cc21)c1ccc(F)cc1F (centres undefined)  Candida tropicalis          1.5
1  OC(Cn1cncn1)(Cn1c2ccccc2c2ccccc21)c1ccc(F)cc1F (centres undefined)  Candida tropicalis            1
2  OC(Cn1cncn1)(Cn1c2ccc(Br)cc2c2cc(Br)ccc21)c1ccc(F)cc1F (centres undefined)  Candida tropicalis         0.75

Could you now consider this next compound?
Request: fractional inhibitory concentration index (FICI) lookup needed for OC(Cn1cncn1)(Cn1c2ccccc2c2cc(Br)ccc21)c1ccc(F)cc1F (centres undefined) , thanks.
Response: 1.5

* * *

system: Staphylococcus aureus; test: Antibacterial activity against Staphylococcus aureus ATCC 25923 after 24 hrs by micro broth dilution method; format: functional; details: ATCC 25923, 24 h
Quantity: MIC

Please review the entries below; each comes with its answer.
                                   compound  quantity  test_result
0  CC(C)(C)c1ccc2c(c1)c1cc(C(C)(C)C)ccc1n2CC(O)(Cn1cncn1)c1ccc(F)cc1F (configuration not stated)       MIC     32 µg/mL
1  OC(Cn1cncn1)(Cn1c2ccc(Br)cc2c2cc(Br)ccc21)c1ccc(F)cc1 (configuration not stated)       MIC     32 µg/mL
2  OC(Cn1cncn1)(Cn1c2ccc(Br)cc2c2cc(Br)ccc21)c1ccc(Cl)cc1 (configuration not stated)       MIC     32 µg/mL
3  Cc1ccc(C(O)(Cn2cncn2)Cn2c3ccc(Br)cc3c3cc(Br)ccc32)cc1 (configuration not stated)       MIC    128 µg/mL
4  OC(Cn1cncn1)(Cn1c2ccc(Br)cc2c2cc(Br)ccc21)c1ccc(Cl)c(Cl)c1 (configuration not stated)       MIC     16 µg/mL
5  OC(Cn1cncn1)(Cn1c2ccccc2c2ccc(Br)cc21)c1ccc(F)cc1F (configuration not stated)       MIC     16 µg/mL

Request: Fill in: MIC of OC(Cn1cncn1)(Cn1c2ccc(Br)cc2c2cc(Br)ccc21)c1ccc(F)cc1F (configuration not stated) is ___
Response: 32 µg/mL

* * *

Recorded MIC values for a group of compounds are listed next.
test system: Aspergillus fumigatus; experiment: Antifungal activity against Aspergillus fumigatus after 24 hrs by two-fold broth microdilution assay; assay type: functional

Use these answered entries as a reference point.
>>> print(df.to_string())
                                   compound           study_target  test_result
0        OC(Cn1cncn1)(Cn1cncn1)c1ccc(F)cc1F  Aspergillus fumigatus    256 µg/mL
1  OC(Cn1cncn1)(Cn1c2ccc(Br)cc2c2cc(Br)ccc21)c1ccc(F)cc1 (stereo unspecified)  Aspergillus fumigatus    128 µg/mL
2  OC(Cn1cncn1)(Cn1ccc2ccccc21)c1ccc(F)cc1F (stereo unspecified)  Aspergillus fumigatus     32 µg/mL

Request: Quick one: MIC of OC(Cn1cncn1)(Cn1c2ccccc2c2ccc(Br)cc21)c1ccc(F)cc1F (stereo unspecified) ?
Response: 64 µg/mL

Request: Value lookup for MIC; key = OC(Cn1cncn1)(Cn1c2ccc(Br)cc2c2cc(Br)ccc21)c1ccc(Cl)cc1 (stereo unspecified)
Response: 64 µg/mL

Request: I'd like to know its MIC. The compound in question is Cc1ccc(C(O)(Cn2cncn2)Cn2c3ccc(Br)cc3c3cc(Br)ccc32)cc1 (stereo unspecified)
Response: 64 µg/mL
